- assay-summary: Quantitative High-Throughput drug screen in 47 multiple myeloma cell lines against the NCATS MIPE library collection: OCIMY1_PLB cell viability assay (AID 1918979); further: nearly all actives have a fitted effect of over 35% in size; further: potency means the concentration at half of the fitted maximal effect
- stated-conditions: OCI-MY1 myeloma viability, CellTiter-Glo ATP, 48 h; series mostly up to 45.8 µM
Records with an inconclusive call do not appear. Active and inactive are the calls of the source. The call rests on the fitted dose curve; in most records, active means well fitted cell-killing curve with a large enough effect; inconclusive means small, poorly fitted or top-dose-only effect, or effect the other way; inactive means no such curve, though single readings can be large or run the other way.
observation-type: Potency

Field: example entries. Status: answers known.
[[record]]
compound = "Nc1nc(N)nc(-c2cc(Cl)ccc2Cl)n1"
observation_type = "Potency"
assay_result = "inactive"

[[record]]
compound = "CCc1cc(C(N)=S)ccn1"
observation_type = "Potency"
assay_result = "inactive"

[[record]]
compound = "O=C(N[C@H](CO)[C@H](O)c1ccc([N+](=O)[O-])cc1)C(Cl)Cl"
observation_type = "Potency"
assay_result = "inactive"

[[record]]
compound = "CN(C)CCc1c[nH]c2ccc(C[C@H]3COC(=O)N3)cc12"
observation_type = "Potency"
assay_result = "inactive"


Inquiry: Report Potency, nothing else, for this compound: CCN(CC)CC#CCOC(=O)C(O)(c1ccccc1)C1CCCCC1 (configuration not stated)
Reply text: inactive

Inquiry: Quick one: give measured Potency for `CCCc1nc(C)c2c(=O)[nH]c(-c3cc(S(=O)(=O)N4CCN(CC)CC4)ccc3OCC)nn12`
Reply text: 4.69 µM (active)

Inquiry: Supply Potency value. Item: `COc1cc(NCc2ccc3nc(N)nc(N)c3c2C)cc(OC)c1OC`
Reply text: 13.2 µM (active)

Inquiry: Provide only the value of recorded Potency for `CC(C)Cn1cnc2c(N)nc3ccccc3c21`
Reply text: inactive

Inquiry: Complete the entry with Potency for `CCOC(=O)c1ccc(C#Cc2ccc3c(c2)C(C)(C)CCS3)nc1`
Reply text: inactive

Inquiry: Identify Potency associated with the compound `CC[C@H](NC(C)C)[C@H](O)c1ccc(O)c2[nH]c(=O)ccc12`
Reply text: inactive

Inquiry: State, in one line, measured Potency of `CN(C)c1ccc(C(=C2C=CC(=[N+](C)C)C=C2)c2ccc(N(C)C)cc2)cc1`
Reply text: 2.09 µM (active)

Inquiry: Supply measured Potency of `CC(C)(C)NC(=O)[C@H]1CC[C@H]2[C@@H]3CC[C@H]4NC(=O)C=C[C@]4(C)[C@H]3CC[C@]12C` in your reply.
Reply text: inactive

Inquiry: Please list Potency recorded for the compound `CC(C)(C#N)c1cc(Cn2cncn2)cc(C(C)(C)C#N)c1`
Reply text: inactive

Inquiry: Name the recorded Potency of the compound listed here: `O=c1cc(O)c(Cl)c[nH]1`
Reply text: inactive

Inquiry: Specify Potency for CC(=O)CC(c1ccccc1)c1c(O)c2ccccc2oc1=O (configuration not stated) and stop.
Reply text: inactive

Inquiry: Supply recorded Potency for `CCOC(=O)[C@H](CCc1ccccc1)N[C@H]1CS[C@H](c2cccs2)CN(CC(=O)O)C1=O` here.
Reply text: inactive

Inquiry: Check the records and state Potency for `Cc1cccc(N(C)C(=S)Oc2ccc3ccccc3c2)c1`
Reply text: inactive

Inquiry: Report Potency for O=C(NCC1CN(c2ccc(N3CCOCC3=O)cc2)C(=O)O1)c1ccc(Cl)s1 (configuration not stated)
Reply text: inactive

Inquiry: Tell me Potency reported for NS(=O)(=O)c1cc2c(cc1Cl)NC(C(Cl)Cl)NS2(=O)=O (configuration not stated)
Reply text: inactive

====

- assay-summary: qHTS of pediatric cancer cell lines to identify multiple opportunities for drug repurposing: Confirmatory screen for SK-N-MC cells (AID 1347111);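 further: cells exposed to compound for 48 h before the readout; nearly all actives have a fitted effect of over 70% in size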; further: potency means the concentration at half of the fitted maximal effect
- stated-conditions: SK-N-MC cell viability; series mostly up to 45.9 µM
Inconclusive results are not listed. Active and inactive are the calls of the source. Calls follow the shape of the dose curve; as a rule, active = well fitted cell-killing curve with a large enough effect; inconclusive = small, poorly fitted or top-dose-only effect; inactive = no such curve, though single readings can be large or run the other way.
observation-type: Potency

# example entries with known answers
[[record]]
molecule = "Nc1nc(F)nc2c1ncn2[C@@H]1O[C@H](CO)[C@@H](O)[C@@H]1O"
assay_result = "465 nM (active)"

[[record]]
molecule = "COC(=O)Nc1nc2ccc(Sc3ccccc3)cc2[nH]1"
assay_result = "1040 nM (active)"

[[record]]
molecule = "Nc1nc(N)c2nc(CNc3ccc(C(=O)NC(CCC(=O)O)C(=O)O)cc3)cnc2n1 (centres undefined)"
assay_result = "329 nM (active)"

[[record]]
molecule = "COc1ccc(C(=O)CC(=O)c2ccc(C(C)(C)C)cc2)cc1"
assay_result = "26100 nM (active)"


Inquiry: Return Potency for the following molecule: CC(C)NCC(O)c1ccc(NS(C)(=O)=O)cc1 (centres undefined)
Reply text: inactive

Inquiry: Consider the molecule `COc1cc([C@@H]2c3cc4c(cc3[C@H](O)[C@H]3COC(=O)[C@H]23)OCO4)cc(OC)c1OC` . State its measured Potency.
Reply text: 32.9 nM (active)

Inquiry: For the molecule CN1CCCC(n2nc(Cc3ccc(Cl)cc3)c3ccccc3c2=O)CC1 (centres undefined) , give its measured Potency value.
Reply text: 23300 nM (active)

Inquiry: Indicate the recorded Potency value for this molecule: `CCC(=O)O[C@]1(C(=O)CCl)[C@@H](C)C[C@H]2[C@@H]3CCC4=CC(=O)C=C[C@]4(C)[C@@]3(F)[C@@H](O)C[C@@]21C`
Reply text: inactive

Inquiry: Report measured Potency; entry is `COc1nc(N)nc2c1ncn2[C@@H]1O[C@H](CO)[C@@H](O)[C@@H]1O`
Reply text: 2930 nM (active)

Inquiry: Dear colleague, please send me the reported Potency for `CNS(=O)(=O)CCc1ccc2[nH]cc(C3CCN(C)CC3)c2c1` when you can.
Reply text: 4140 nM (active)

Inquiry: Note Potency for the molecule shown: `CC(C)C[C@H](NC(=O)[C@H](CCc1ccccc1)NC(=O)CN1CCOCC1)C(=O)N[C@@H](Cc1ccccc1)C(=O)N[C@@H](CC(C)C)C(=O)[C@@]1(C)CO1`
Reply text: 8.3 nM (active)

Inquiry: Supply Potency value. Item: `C[C@@H](CN1CC(=O)NC(=O)C1)N1CC(=O)NC(=O)C1`
Reply text: inactive
